Observed Kd values for Serine/threonine-protein kinase MRCK alpha (Homo sapiens, UniProt Q5VT25) are listed in what follows.
Calls of active or inactive are those of the source.

# annotated cases, reported Kd shown
>  <Smiles structure>
O=c1sn(-c2cccc3ccccc23)c(=O)n1Cc1ccccc1

>  <Kd>
> 30 µM (inactive)

$$$$
>  <Smiles structure>
COc1cc(OC)c(/C=C/S(=O)(=O)Cc2ccc(OC)c(NCC(=O)O)c2)c(OC)c1

>  <Kd>
> 30 µM (inactive)

$$$$
>  <Smiles structure>
COc1cc2nccc(Oc3ccc(NC(=O)NC4CC4)c(Cl)c3)c2cc1C(N)=O

>  <Kd>
> 30 µM (inactive)

$$$$
>  <Smiles structure>
COc1cc(CCc2cc(NC(=O)c3ccc(N4C[C@@H](C)N[C@@H](C)C4)cc3)n[nH]2)cc(OC)c1

>  <Kd>
> 30 µM (inactive)

$$$$
>  <Smiles structure>
CNC(=O)c1cc(Oc2ccc(NC(=O)Nc3ccc(Cl)c(C(F)(F)F)c3)c(F)c2)ccn1

>  <Kd>
> 30 µM (inactive)

$$$$

INPUT: State Kd on Serine/threonine-protein kinase MRCK alpha (Homo sapiens, UniProt Q5VT25). Entry: COC(=O)N[C@@H](C)CNc1nccc(-c2cn(C(C)C)nc2-c2cc(Cl)cc(NS(C)(=O)=O)c2F)n1
Sequence (Q5VT25 whole entry): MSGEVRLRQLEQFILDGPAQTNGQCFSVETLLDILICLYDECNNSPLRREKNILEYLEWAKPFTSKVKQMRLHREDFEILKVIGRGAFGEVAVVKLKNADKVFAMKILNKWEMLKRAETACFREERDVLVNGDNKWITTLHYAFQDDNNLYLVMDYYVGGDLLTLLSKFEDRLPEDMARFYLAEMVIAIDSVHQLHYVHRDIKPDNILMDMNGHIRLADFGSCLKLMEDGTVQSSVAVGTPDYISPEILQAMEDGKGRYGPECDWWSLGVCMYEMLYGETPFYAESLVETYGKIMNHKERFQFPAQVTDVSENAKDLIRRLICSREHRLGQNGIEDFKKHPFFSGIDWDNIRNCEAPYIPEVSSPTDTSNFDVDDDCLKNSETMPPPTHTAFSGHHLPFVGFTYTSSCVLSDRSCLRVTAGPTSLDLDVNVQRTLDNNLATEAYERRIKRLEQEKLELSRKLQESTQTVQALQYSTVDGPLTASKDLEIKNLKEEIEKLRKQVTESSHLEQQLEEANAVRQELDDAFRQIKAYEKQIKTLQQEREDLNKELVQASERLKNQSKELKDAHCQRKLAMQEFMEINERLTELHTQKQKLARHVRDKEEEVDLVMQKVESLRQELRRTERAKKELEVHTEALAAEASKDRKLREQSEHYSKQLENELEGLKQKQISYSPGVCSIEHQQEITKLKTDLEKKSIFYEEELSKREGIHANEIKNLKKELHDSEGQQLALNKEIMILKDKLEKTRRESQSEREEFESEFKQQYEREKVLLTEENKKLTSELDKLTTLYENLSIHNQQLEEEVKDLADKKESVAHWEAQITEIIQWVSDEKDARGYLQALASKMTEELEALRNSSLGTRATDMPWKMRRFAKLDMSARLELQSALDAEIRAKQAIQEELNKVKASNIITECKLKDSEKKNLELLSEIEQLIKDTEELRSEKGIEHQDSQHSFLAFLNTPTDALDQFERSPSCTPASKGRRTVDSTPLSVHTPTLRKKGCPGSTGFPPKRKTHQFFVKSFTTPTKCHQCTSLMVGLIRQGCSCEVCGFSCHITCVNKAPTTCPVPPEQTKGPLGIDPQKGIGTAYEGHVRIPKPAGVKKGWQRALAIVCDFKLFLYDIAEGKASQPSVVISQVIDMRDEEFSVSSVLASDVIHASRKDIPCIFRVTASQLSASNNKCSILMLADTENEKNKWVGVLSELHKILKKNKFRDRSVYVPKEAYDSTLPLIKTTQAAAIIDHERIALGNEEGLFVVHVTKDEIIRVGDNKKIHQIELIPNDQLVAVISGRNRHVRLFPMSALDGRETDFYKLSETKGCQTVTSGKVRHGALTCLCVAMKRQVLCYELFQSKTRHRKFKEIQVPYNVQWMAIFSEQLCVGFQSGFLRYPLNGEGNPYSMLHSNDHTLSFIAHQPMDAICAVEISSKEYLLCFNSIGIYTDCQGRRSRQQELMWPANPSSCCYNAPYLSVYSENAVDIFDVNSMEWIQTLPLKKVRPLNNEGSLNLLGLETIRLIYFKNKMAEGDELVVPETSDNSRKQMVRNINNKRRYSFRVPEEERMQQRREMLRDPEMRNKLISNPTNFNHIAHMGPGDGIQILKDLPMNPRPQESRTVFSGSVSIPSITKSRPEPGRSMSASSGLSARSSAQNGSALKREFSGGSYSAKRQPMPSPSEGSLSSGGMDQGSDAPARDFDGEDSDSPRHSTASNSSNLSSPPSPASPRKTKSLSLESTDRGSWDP
OUTPUT: > 30 µM (inactive)

INPUT: State Kd on Serine/threonine-protein kinase MRCK alpha (Homo sapiens, UniProt Q5VT25). Entry: C1=C/COCc2cc(ccc2OCCN2CCCC2)Nc2nccc(n2)-c2cccc(c2)COC/1
OUTPUT: > 30 µM (inactive)

INPUT: State Kd on Serine/threonine-protein kinase MRCK alpha (Homo sapiens, UniProt Q5VT25). Entry: O=C(O)[C@]1(Cc2cccc(Nc3nccs3)n2)CC[C@@H](Oc2cccc(Cl)c2F)CC1
OUTPUT: > 30 µM (inactive)
